- MEASURED ON: progestin receptor (rPR) (Oryctolagus cuniculus)
- Construct: hormone receptors for progestins and glucocorticoids from rabbits; from tissue; host or cells: rabbit
- ASSAY EXPLANATION: Receptor binding (rabbit), progestin receptor
- PARTICULARS: relative to progesterone = 100; rabbit progestin receptor
PARAMETER MEASURED: Relative Binding Affinity, rPR, Relative Affinity (Progesterone)
Just the number, please, no unit after it.

QUERY: Which value of Relative Binding Affinity, rPR, Relative Affinity (Progesterone) has been reported for CC(=O)c1ccc([C@H]2C[C@@]3(C)[C@@H](CC[C@]3(CCCO)[N+](=O)[O-])[C@@H]3CCC4=CC(=O)CCC4=C32)cc1 in the records?
RESULT: 53

QUERY: Request: CC#C[C@]1([N+](=O)[O-])CC[C@H]2[C@@H]3CCC4=CC(=O)CCC4=C3[C@@H](c3ccc(C(C)=O)cc3)C[C@@]21C
RESULT: 153

QUERY: Request: C[S+]([O-])c1ccc([C@H]2C[C@@]3(C)[C@@H](CC[C@]3(CCCO)[N+](=O)[O-])[C@@H]3CCC4=CC(=O)CCC4=C32)cc1 (stereo partly drawn)
RESULT: 23

###

Would you kindly list Ratio PR/GR for each of these compounds?
- MEASURED ON: progestin receptor (rPR) (Oryctolagus cuniculus, UniProt P06186)
- Construct: hormone receptors for progestins and glucocorticoids from rabbits; from tissue; host or cells: rabbit
- Sequence (P06186 whole entry): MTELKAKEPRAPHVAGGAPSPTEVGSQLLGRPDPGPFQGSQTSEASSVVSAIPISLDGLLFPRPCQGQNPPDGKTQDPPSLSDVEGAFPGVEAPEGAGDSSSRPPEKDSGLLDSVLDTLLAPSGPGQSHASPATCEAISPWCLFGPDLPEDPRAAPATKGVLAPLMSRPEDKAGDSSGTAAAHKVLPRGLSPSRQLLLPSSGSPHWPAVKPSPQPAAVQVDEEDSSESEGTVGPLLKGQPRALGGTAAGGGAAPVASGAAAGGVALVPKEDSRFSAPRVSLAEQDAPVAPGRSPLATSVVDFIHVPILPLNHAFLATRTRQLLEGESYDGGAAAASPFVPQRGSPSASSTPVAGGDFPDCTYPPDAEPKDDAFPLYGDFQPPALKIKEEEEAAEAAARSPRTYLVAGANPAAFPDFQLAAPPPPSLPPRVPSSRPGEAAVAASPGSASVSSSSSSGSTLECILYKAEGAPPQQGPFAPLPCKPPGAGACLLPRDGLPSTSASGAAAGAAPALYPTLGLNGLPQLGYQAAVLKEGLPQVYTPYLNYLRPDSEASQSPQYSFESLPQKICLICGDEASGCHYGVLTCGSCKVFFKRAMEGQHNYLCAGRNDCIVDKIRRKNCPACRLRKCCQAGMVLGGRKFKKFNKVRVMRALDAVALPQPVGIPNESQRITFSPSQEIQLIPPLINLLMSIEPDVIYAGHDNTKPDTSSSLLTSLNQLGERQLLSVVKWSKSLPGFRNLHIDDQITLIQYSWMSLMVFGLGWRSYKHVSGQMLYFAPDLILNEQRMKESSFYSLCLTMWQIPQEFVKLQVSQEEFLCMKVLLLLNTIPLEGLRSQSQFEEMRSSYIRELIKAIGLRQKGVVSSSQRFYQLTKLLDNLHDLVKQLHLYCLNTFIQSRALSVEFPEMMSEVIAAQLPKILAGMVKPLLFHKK
- ASSAY EXPLANATION: Receptor binding (rabbit), progestin receptor
- PARTICULARS: ratio of rPR to rGR relative affinities

QUERY: Which value of Ratio PR/GR has been reported for C[S+]([O-])c1ccc([C@H]2C[C@@]3(C)[C@@H](CC[C@]3(CCCO)[N+](=O)[O-])[C@@H]3CCC4=CC(=O)CCC4=C32)cc1 (stereo partly drawn) in the records?
RESULT: > 10

QUERY: Request: CC(=O)c1ccc([C@H]2C[C@@]3(C)[C@@H](CC[C@]3(CCCO)[N+](=O)[O-])[C@@H]3CCC4=CC(=O)CCC4=C32)cc1
RESULT: 17.7

QUERY: Request: CN(C)c1ccc([C@H]2C[C@@]3(C)[C@@H](CC[C@]3(CCCO)[N+](=O)[O-])[C@@H]3CCC4=CC(=O)CCC4=C32)cc1
RESULT: 2.3

QUERY: Request: CN(C)c1ccc([C@H]2C[C@@]3(C)[C@@H](CC[C@]3(/C=C/CO)[N+](=O)[O-])[C@@H]3CCC4=CC(=O)CCC4=C32)cc1
RESULT: 3.5

QUERY: Request: CC#C[C@]1([N+](=O)[O-])CC[C@H]2[C@@H]3CCC4=CC(=O)CCC4=C3[C@@H](c3ccc(C(C)=O)cc3)C[C@@]21C
RESULT: 7.7

QUERY: Request: CC1=[N+]([O-])C2(CC1)CCC1C3CCC4=CC(=O)CCC4=C3C(c3ccc(N(C)C)cc3)CC12C (stereo not drawn)
RESULT: 78.5

QUERY: Request: CC#C[C@]1([N+](=O)[O-])CC[C@H]2[C@@H]3CCC4=CC(=O)CCC4=C3[C@@H](c3ccc(N(C)C)cc3)C[C@@]21C
RESULT: 1.5

QUERY: Request: CC(=O)c1ccc([C@H]2C[C@@]3(C)[C@@H](CC[C@]3(/C=C/CO)[N+](=O)[O-])[C@@H]3CCC4=CC(=O)CCC4=C32)cc1
RESULT: 6.5

QUERY: Request: CSc1ccc([C@H]2C[C@@]3(C)[C@@H](CC[C@]3(CCCO)[N+](=O)[O-])[C@@H]3CCC4=CC(=O)CCC4=C32)cc1
RESULT: 20.3

###

Would you kindly list McPhail Index, McGinty Assay (Agonist) for each of these compounds?
- Test system: rabbits
- ASSAY EXPLANATION: McGinty assay (progestational activity, test compound alone)
- Type: in vivo, rabbit
- Set-up: key: McPhail scoring scale for progestational endometrial response
- PARTICULARS: dose 0.3 micrograms

QUERY: Which value of McPhail Index, McGinty Assay (Agonist) has been reported for CN(C)c1ccc([C@H]2C[C@@]3(C)[C@@H](CC[C@]3(CCCO)[N+](=O)[O-])[C@@H]3CCC4=CC(=O)CCC4=C32)cc1 in the records?
RESULT: 0 ± 0

QUERY: Request: CC1=[N+]([O-])C2(CC1)CCC1C3CCC4=CC(=O)CCC4=C3C(c3ccc(N(C)C)cc3)CC12C (stereo not drawn)
RESULT: 0 ± 0

QUERY: Request: CN(C)c1ccc([C@H]2C[C@@]3(C)[C@@H](CC[C@@]34CCC=[N+]4[O-])[C@@H]3CCC4=CC(=O)CCC4=C32)cc1
RESULT: 0 ± 0

QUERY: Request: CC(=O)c1ccc([C@H]2C[C@@]3(C)[C@@H](CC[C@]3(/C=C/CO)[N+](=O)[O-])[C@@H]3CCC4=CC(=O)CCC4=C32)cc1
RESULT: 0 ± 0

QUERY: Request: CC(=O)c1ccc([C@H]2C[C@@]3(C)[C@@H](CC[C@]3(CCCO)[N+](=O)[O-])[C@@H]3CCC4=CC(=O)CCC4=C32)cc1
RESULT: 0 ± 0

QUERY: Request: CC#C[C@]1([N+](=O)[O-])CC[C@H]2[C@@H]3CCC4=CC(=O)CCC4=C3[C@@H](c3ccc(C(C)=O)cc3)C[C@@]21C
RESULT: 0.13 ± 0.12

###

- MEASURED ON: glucocorticoid receptor (rGR) (Oryctolagus cuniculus)
- Construct: the source of the glucocorticoid receptor was the thymus of the estrogen-primed immature female rabbit; from tissue; host or cells: thymus of the estrogen-primed immature female rabbit
- Sequence (P59667 1-772): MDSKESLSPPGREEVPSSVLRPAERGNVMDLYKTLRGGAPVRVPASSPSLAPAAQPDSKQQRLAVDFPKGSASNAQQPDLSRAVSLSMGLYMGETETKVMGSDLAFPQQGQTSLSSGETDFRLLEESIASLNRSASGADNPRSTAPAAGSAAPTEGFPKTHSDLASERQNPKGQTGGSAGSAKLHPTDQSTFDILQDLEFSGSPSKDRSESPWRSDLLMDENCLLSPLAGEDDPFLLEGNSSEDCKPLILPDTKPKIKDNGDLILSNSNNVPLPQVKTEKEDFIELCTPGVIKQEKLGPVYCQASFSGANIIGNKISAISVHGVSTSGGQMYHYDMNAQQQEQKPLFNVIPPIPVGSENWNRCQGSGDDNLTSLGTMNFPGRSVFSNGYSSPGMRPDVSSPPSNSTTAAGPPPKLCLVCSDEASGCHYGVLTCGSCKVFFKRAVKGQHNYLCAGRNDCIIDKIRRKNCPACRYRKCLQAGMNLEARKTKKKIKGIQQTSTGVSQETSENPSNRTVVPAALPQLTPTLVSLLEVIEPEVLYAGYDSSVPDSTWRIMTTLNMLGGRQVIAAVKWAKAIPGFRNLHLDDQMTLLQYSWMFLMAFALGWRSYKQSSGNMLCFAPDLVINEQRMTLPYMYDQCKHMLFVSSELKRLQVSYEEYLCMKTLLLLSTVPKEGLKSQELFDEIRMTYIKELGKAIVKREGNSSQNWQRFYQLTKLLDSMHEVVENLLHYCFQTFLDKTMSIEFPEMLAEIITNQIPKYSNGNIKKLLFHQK
- ASSAY EXPLANATION: Receptor binding (rabbit), glucocorticoid receptor
- PARTICULARS: relative to dexamethasone = 100
PARAMETER MEASURED: Relative Binding Affinity, rGR, Relative Affinity (Dexamethasone)

QUERY: Which value of Relative Binding Affinity, rGR, Relative Affinity (Dexamethasone) has been reported for CC(=O)c1ccc([C@H]2C[C@@]3(C)[C@@H](CC[C@]3(CCCO)[N+](=O)[O-])[C@@H]3CCC4=CC(=O)CCC4=C32)cc1 in the records?
RESULT: 3

QUERY: Request: C[S+]([O-])c1ccc([C@H]2C[C@@]3(C)[C@@H](CC[C@]3(CCCO)[N+](=O)[O-])[C@@H]3CCC4=CC(=O)CCC4=C32)cc1 (some centres unmarked)
RESULT: < 2

QUERY: Request: CC1=[N+]([O-])C2(CC1)CCC1C3CCC4=CC(=O)CCC4=C3C(c3ccc(N(C)C)cc3)CC12C (centres unmarked)
RESULT: 2

QUERY: Request: CC(=O)c1ccc([C@H]2C[C@@]3(C)[C@@H](CC[C@]3(/C=C/CO)[N+](=O)[O-])[C@@H]3CCC4=CC(=O)CCC4=C32)cc1
RESULT: 4

QUERY: Request: CC#C[C@]1([N+](=O)[O-])CC[C@H]2[C@@H]3CCC4=CC(=O)CCC4=C3[C@@H](c3ccc(N(C)C)cc3)C[C@@]21C
RESULT: 36

###

Would you kindly list McPhail Index, Anti-McGinty Assay (Antagonist) for each of these compounds?
- Test system: rabbits
- ASSAY EXPLANATION: Anti-McGinty assay (antiprogestational activity, test compound plus progesterone)
- Assay type: in vivo, rabbit
- Design: key: McPhail scoring scale for progestational endometrial response
- PARTICULARS: dose 0.3 micrograms; plus progesterone
Just the number, please, no unit after it.

QUERY: Which value of McPhail Index, Anti-McGinty Assay (Antagonist) has been reported for CC(=O)c1ccc([C@H]2C[C@@]3(C)[C@@H](CC[C@]3(/C=C/CO)[N+](=O)[O-])[C@@H]3CCC4=CC(=O)CCC4=C32)cc1 [I 4-CH3 CO H O H CH=CHCH2 OH] in the records?
RESULT: 1.53

QUERY: Request: CN(C)c1ccc([C@H]2C[C@@]3(C)[C@@H](CC[C@]3(CCCO)[N+](=O)[O-])[C@@H]3CCC4=CC(=O)CCC4=C32)cc1 [I 4-Me2 N H O H --(CH2)3 OH]
RESULT: 1.83

QUERY: Request: CC1=[N+]([O-])C2(CC1)CCC1C3CCC4=CC(=O)CCC4=C3C(c3ccc(N(C)C)cc3)CC12C (stereo not drawn) [II 4-Me2 N H O H -- CH3]
RESULT: 2.03

QUERY: Request: CN(C)c1ccc([C@H]2C[C@@]3(C)[C@@H](CC[C@@]34CCC=[N+]4[O-])[C@@H]3CCC4=CC(=O)CCC4=C32)cc1 [II 4-Me2 N H O H -- H]
RESULT: 2.0

QUERY: Request: CC(=O)c1ccc([C@H]2C[C@@]3(C)[C@@H](CC[C@]3(CCCO)[N+](=O)[O-])[C@@H]3CCC4=CC(=O)CCC4=C32)cc1 [I 4-CH3 CO H O H --(CH2)3 OH]
RESULT: 2.93

QUERY: Request: CC#C[C@]1([N+](=O)[O-])CC[C@H]2[C@@H]3CCC4=CC(=O)CCC4=C3[C@@H](c3ccc(C(C)=O)cc3)C[C@@]21C [I 4-CH3 CO H O H --CC--CH3]
RESULT: 2.173

// data source = patent US6015805A
